# assay.details: in vivo
# condition.set: male, Hsd:ICR (CD-1), mouse, plasma, iv, 3 mg/kg
Quick reference: half-life of the listed items.
measurement.name: half-life

>  <molecular.string>
Cl.Cl.N[C@H]1CC[C@H](Nc2nc(NC3CCN(C(=O)Nc4ccc(C(F)(F)F)cc4)CC3)c3ncn(C4CCCC4)c3n2)CC1

>  <measurement.name>
half-life

>  <data.value>
1.6 h

$$$$
>  <molecular.string>
Cl.Cl.N[C@H]1CC[C@H](Nc2nc(NC3CCN(C(=O)Oc4ccc(F)cc4)CC3)c3ncn(C4CCCC4)c3n2)CC1

>  <measurement.name>
half-life

>  <data.value>
1.6 h

$$$$
>  <molecular.string>
Cl.Cl.N[C@H]1CC[C@H](Nc2nc(NC3CCN(S(=O)(=O)c4cccc(C(F)(F)F)c4)CC3)c3ncn(C4CCCC4)c3n2)CC1

>  <measurement.name>
half-life

>  <data.value>
2.8 h

$$$$
>  <molecular.string>
Cl.Cl.N#Cc1ccc(S(=O)(=O)N2CCC(Nc3nc(N[C@H]4CC[C@H](N)CC4)nc4c3ncn4C3CCCC3)CC2)cc1

>  <measurement.name>
half-life

>  <data.value>
2 h

$$$$
>  <molecular.string>
Cl.Cl.N[C@H]1CC[C@H](Nc2nc(NC3CCN(C(=O)Oc4ccc(Cl)cc4)CC3)c3ncn(C4CCCC4)c3n2)CC1

>  <measurement.name>
half-life

>  <data.value>
1.9 h

$$$$
>  <molecular.string>
COC(=O)c1ccc(OC(=O)N2CCC(Nc3nc(N[C@H]4CC[C@H](N)CC4)nc4c3ncn4C3CCCC3)CC2)cc1.Cl.Cl

>  <measurement.name>
half-life

>  <data.value>
0.7 h

$$$$
>  <molecular.string>
Cl.Cl.N[C@H]1CC[C@H](Nc2nc(NC3CCN(S(=O)(=O)c4ccc(F)cc4)CC3)c3ncn(C4CCCC4)c3n2)CC1

>  <measurement.name>
half-life

>  <data.value>
1.3 h

$$$$
>  <molecular.string>
Cl.Cl.N[C@H]1CC[C@H](Nc2nc(NC3CCN(C(=O)Oc4ccc(Br)cc4)CC3)c3ncn(C4CCCC4)c3n2)CC1

>  <measurement.name>
half-life

>  <data.value>
1.7 h

$$$$
>  <molecular.string>
CCOC(=O)c1ccc(NC(=O)N2CCC(Nc3nc(N[C@H]4CC[C@H](N)CC4)nc4c3ncn4C3CCCC3)CC2)cc1.Cl.Cl

>  <measurement.name>
half-life

>  <data.value>
0.8 h

$$$$
>  <molecular.string>
Cl.Cl.N[C@H]1CC[C@H](Nc2nc(NC3CCN(C(=O)Oc4ccccc4)CC3)c3ncn(C4CCCC4)c3n2)CC1

>  <measurement.name>
half-life

>  <data.value>
2.3 h

$$$$
>  <molecular.string>
COC(=O)c1ccccc1S(=O)(=O)N1CCC(Nc2nc(N[C@H]3CC[C@H](N)CC3)nc3c2ncn3C2CCCC2)CC1.Cl.Cl

>  <measurement.name>
half-life

>  <data.value>
2 h

$$$$
>  <molecular.string>
COc1ccc(OC(=O)N2CCC(Nc3nc(N[C@H]4CC[C@H](N)CC4)nc4c3ncn4C3CCCC3)CC2)cc1.Cl.Cl

>  <measurement.name>
half-life

>  <data.value>
1.5 h

$$$$
>  <molecular.string>
Cl.Cl.N[C@H]1CC[C@H](Nc2nc(NC3CCN(C(=O)Oc4ccc([N+](=O)[O-])cc4)CC3)c3ncn(C4CCCC4)c3n2)CC1

>  <measurement.name>
half-life

>  <data.value>
1.8 h

$$$$
>  <molecular.string>
Cl.Cl.N[C@H]1CC[C@H](Nc2nc(NC3CCN(C(=O)c4cccc(C(F)(F)F)c4F)CC3)c3ncn(C4CCCC4)c3n2)CC1

>  <measurement.name>
half-life

>  <data.value>
2.3 h

$$$$
>  <molecular.string>
Cc1ccc(OC(=O)N2CCC(Nc3nc(N[C@H]4CC[C@H](N)CC4)nc4c3ncn4C3CCCC3)CC2)cc1.Cl.Cl

>  <measurement.name>
half-life

>  <data.value>
3 h

$$$$

====

Quick reference: IC50 of the listed items.
# measured.on: cdk2/cyclin E (Homo sapiens)
# assay.details: Cyclin-dependent kinase assay, cdk2/cyclin E
# condition.set: CDK2 IC50, nM, GST-pRb substrate, 10 µM ATP
Counter-ions that a name gives are not always drawn.
measurement.name: IC50 (nM)

>  <compound>
N[C@H]1CC[C@H](Nc2nc(NC3CCN(C(=O)Nc4ccc(Cl)c(C(F)(F)F)c4)CC3)c3ncn(C4CCCC4)c3n2)CC1 [compound 179, dihydrochloride]

>  <uom>
nM

>  <data.value>
261

$$$$
>  <compound>
Cc1ccccc1C(=O)N1CCC(Nc2nc(N[C@H]3CC[C@H](N)CC3)nc3c2ncn3C2CCCC2)CC1 [compound 70]

>  <uom>
nM

>  <data.value>
430

$$$$
>  <compound>
Cc1cccc(Cl)c1NC(=O)N1CCC(Nc2nc(N[C@H]3CC[C@H](N)CC3)nc3c2ncn3C2CCCC2)CC1 [compound 196, dihydrochloride]

>  <uom>
nM

>  <data.value>
2

$$$$

====

# assay.details: in vivo
# condition.set: male, Hsd:ICR (CD-1), mouse, plasma, iv, 18 mg/kg
Quick reference: concentration at 3 h of the listed items.

>  <molecule>
Cl.Cl.N#Cc1ccc(S(=O)(=O)N2CCC(Nc3nc(N[C@H]4CC[C@H](N)CC4)nc4c3ncn4C3CCCC3)CC2)cc1 [compound 109, dihydrochloride]

>  <concentration at 3 h>
30.1 ng/mL

$$$$
>  <molecule>
COc1ccc(OC(=O)N2CCC(Nc3nc(N[C@H]4CC[C@H](N)CC4)nc4c3ncn4C3CCCC3)CC2)cc1.Cl.Cl [compound 84, dihydrochloride]

>  <concentration at 3 h>
27 ng/mL

$$$$
>  <molecule>
Cl.Cl.N[C@H]1CC[C@H](Nc2nc(NC3CCN(C(=O)Oc4ccccc4)CC3)c3ncn(C4CCCC4)c3n2)CC1 [compound 85, dihydrochloride]

>  <concentration at 3 h>
14.3 ng/mL

$$$$
>  <molecule>
CCOC(=O)c1ccc(NC(=O)N2CCC(Nc3nc(N[C@H]4CC[C@H](N)CC4)nc4c3ncn4C3CCCC3)CC2)cc1.Cl.Cl [compound 154, dihydrochloride]

>  <concentration at 3 h>
8.4 ng/mL

$$$$
>  <molecule>
COC(=O)c1ccc(OC(=O)N2CCC(Nc3nc(N[C@H]4CC[C@H](N)CC4)nc4c3ncn4C3CCCC3)CC2)cc1.Cl.Cl [compound 83, dihydrochloride]

>  <concentration at 3 h>
4.1 ng/mL

$$$$

====

# measured.on: cdk1/cyclin B (Homo sapiens, UniProt P06493)
# Sequence (P06493 whole entry): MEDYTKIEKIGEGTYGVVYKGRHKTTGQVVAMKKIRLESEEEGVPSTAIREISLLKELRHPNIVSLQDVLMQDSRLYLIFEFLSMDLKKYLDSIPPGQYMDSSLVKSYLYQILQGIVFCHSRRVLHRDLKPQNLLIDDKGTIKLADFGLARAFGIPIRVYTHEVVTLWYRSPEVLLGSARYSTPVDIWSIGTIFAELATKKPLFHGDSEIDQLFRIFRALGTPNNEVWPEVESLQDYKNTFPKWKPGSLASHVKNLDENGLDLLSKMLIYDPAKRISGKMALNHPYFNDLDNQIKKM
# Sequence (P14635 whole entry partner): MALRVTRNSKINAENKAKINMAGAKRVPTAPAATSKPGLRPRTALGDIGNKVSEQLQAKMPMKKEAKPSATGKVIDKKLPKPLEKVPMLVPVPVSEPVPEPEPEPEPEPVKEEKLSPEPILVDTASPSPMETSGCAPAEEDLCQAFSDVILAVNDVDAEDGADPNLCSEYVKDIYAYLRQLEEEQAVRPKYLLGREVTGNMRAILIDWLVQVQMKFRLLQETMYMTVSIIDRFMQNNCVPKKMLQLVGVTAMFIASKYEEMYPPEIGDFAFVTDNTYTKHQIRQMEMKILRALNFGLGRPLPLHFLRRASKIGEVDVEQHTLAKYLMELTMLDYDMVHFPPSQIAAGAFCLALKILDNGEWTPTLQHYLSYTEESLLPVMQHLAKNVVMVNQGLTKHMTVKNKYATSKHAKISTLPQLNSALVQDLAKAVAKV
# assay.details: Cyclin-dependent kinase assay, cdk1/cyclin B
# condition.set: CDK1 IC50, nM, Histone H1, 10 µM ATP
Where a name gives a salt, the structure may show the parent alone.
Consider the cut-off 50 nM. If the recorded IC50 is strictly smaller, the label is yes; if not, the label is no.

>  <compound>
N[C@H]1CC[C@H](Nc2nc(NC3CCN(C(=O)Oc4ccccc4[N+](=O)[O-])CC3)c3ncn(C4CCCC4)c3n2)CC1 [compound 99, dihydrochloride]

>  <class.name>
yes

$$$$
>  <compound>
CCOC(=O)N1CCC(Nc2nc(N[C@H]3CC[C@H](N)CC3)nc3c2ncn3C2CCCC2)CC1 [compound 93, dihydrochloride]

>  <class.name>
yes

$$$$
>  <compound>
N[C@H]1CC[C@H](Nc2nc(NC3CCN(C(=O)CSc4ccccc4)CC3)c3ncn(C4CCCC4)c3n2)CC1 [compound 46, dihydrochloride]

>  <class.name>
no

$$$$
>  <compound>
CC(C)c1ccc(NC(=O)N2CCC(Nc3nc(N[C@H]4CC[C@H](N)CC4)nc4c3ncn4C3CCCC3)CC2)cc1 [compound 190, dihydrochloride]

>  <class.name>
yes

$$$$
>  <compound>
N[C@H]1CC[C@H](Nc2nc(NC3CCN(C(=O)Cc4ccccc4)CC3)c3ncn(C4CCCC4)c3n2)CC1 [compound 52, dihydrochloride]

>  <class.name>
yes

$$$$
>  <compound>
N[C@H]1CC[C@H](Nc2nc(NC3CCN(C(=O)Nc4ccc(F)c(C(F)(F)F)c4)CC3)c3ncn(C4CCCC4)c3n2)CC1 [compound 203, dihydrochloride]

>  <class.name>
yes

$$$$
>  <compound>
N[C@H]1CC[C@H](Nc2nc(NC3CCN(S(=O)(=O)c4ccc(Cl)cc4)CC3)c3ncn(C4CCCC4)c3n2)CC1 [compound 108, dihydrochloride]

>  <class.name>
yes

$$$$
>  <compound>
C[C@H](NC(=O)N1CCC(Nc2nc(N[C@H]3CC[C@H](N)CC3)nc3c2ncn3C2CCCC2)CC1)c1ccccc1 [compound 161, dihydrochloride]

>  <class.name>
no

$$$$
>  <compound>
Cl.Cl.N[C@H]1CC[C@H](Nc2nc(NC3CCN(C(=O)c4cccc(C(F)(F)F)c4F)CC3)c3ncn(C4CCCC4)c3n2)CC1 [compound 12, dihydrochloride]

>  <class.name>
no

$$$$
>  <compound>
N[C@H]1CC[C@H](Nc2nc(NC3CCN(C(=O)Nc4cc(C(F)(F)F)ccc4Cl)CC3)c3ncn(C4CCCC4)c3n2)CC1 [compound 177, dihydrochloride]

>  <class.name>
yes

$$$$
>  <compound>
N#Cc1ccc(C(=O)N2CCC(Nc3nc(N[C@H]4CC[C@H](N)CC4)nc4c3ncn4C3CCCC3)CC2)cc1 [compound 25]

>  <class.name>
no

$$$$
